molecular target: T1, Nat1 (LTIITLE) (also: TFA salt); assay: cell-based or functional assay
T1 peptide: LTIITLE
Non-standard residues stand in square brackets, D forms with d. No end group written: not given here.
quantityMeasured: IC50, Thiofiavin T aggregation assay (nM)

Ask | So what's the measured IC50, Thiofiavin T aggregation assay for this one? LTIRYYK
Reply | 93

a. [dS][dF][dW][dY][dK][dR][dR] [sfwykrr]
b. LTRILWH
c. WTIKLTH
Ask | List from greatest to least IC50, Thiofiavin T aggregation assay. Give your ranking as a list of the labels in the requested order.
Reply | b, c, a
(b: 16200 nM, c: 720 nM, a: 116 nM)
